Reported values of Kd for individual entries
- Tested System: T1, human PD-1 (construct not stated) (human, UniProt Q15116 25-167, limits assumed)
- T1 construct: also called PD-1 analyte
- T1 sequence (Q15116 25-167 limits assumed): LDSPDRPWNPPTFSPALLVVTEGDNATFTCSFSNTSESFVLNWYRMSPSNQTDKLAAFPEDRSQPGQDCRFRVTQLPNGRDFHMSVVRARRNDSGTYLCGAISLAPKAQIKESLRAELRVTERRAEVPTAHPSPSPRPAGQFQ
- Assay Info: Biacore (summary table; unit from Table 7)
Kindly write the number and append the unit.

Examples from the recorded data:
1) 4C10 murine anti-PD-1 antibody (antibody, V domains shown, Purified hybridoma antibody; also called 4C10-mIgG1) VH: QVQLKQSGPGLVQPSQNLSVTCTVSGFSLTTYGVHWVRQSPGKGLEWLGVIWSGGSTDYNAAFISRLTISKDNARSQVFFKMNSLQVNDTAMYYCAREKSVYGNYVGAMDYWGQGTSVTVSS VL: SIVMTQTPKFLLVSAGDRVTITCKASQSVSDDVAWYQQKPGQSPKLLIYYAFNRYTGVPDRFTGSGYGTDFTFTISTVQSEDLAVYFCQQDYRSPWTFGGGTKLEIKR: 0.0332 nM
2) 22A5 murine anti-PD-1 antibody (antibody, V domains shown, Purified hybridoma antibody; also called 22A5-mIgG1) VH: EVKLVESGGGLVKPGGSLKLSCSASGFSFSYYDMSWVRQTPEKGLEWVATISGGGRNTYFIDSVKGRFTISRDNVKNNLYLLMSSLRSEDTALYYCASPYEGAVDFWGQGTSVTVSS VL: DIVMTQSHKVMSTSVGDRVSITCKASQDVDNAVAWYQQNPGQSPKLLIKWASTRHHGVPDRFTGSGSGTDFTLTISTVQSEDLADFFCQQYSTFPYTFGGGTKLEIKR: 0.0193 nM

Then there is this binder:
Would you kindly share the measured Kd for 15H5 murine anti-PD-1 antibody (antibody, V domains shown, Purified hybridoma antibody; also called 15H5-mIgG1) VH: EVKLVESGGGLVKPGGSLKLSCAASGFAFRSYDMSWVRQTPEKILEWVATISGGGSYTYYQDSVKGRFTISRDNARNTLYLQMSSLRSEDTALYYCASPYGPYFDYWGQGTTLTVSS VL: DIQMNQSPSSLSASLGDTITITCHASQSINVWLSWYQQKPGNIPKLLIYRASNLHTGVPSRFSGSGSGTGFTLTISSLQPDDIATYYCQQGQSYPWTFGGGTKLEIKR ?
0.0184 nM
